- assay.system: Mtb FDTS (Mycobacterium tuberculosis, UniProt P9WG57)
- Sequence (P9WG57 whole entry): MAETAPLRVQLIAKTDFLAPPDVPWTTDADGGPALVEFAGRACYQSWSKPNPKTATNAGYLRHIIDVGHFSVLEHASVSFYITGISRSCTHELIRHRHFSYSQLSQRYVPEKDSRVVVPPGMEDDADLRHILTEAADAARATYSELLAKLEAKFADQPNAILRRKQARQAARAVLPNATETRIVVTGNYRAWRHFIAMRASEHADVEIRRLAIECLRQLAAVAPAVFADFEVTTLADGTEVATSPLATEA
pIC50: −log10 of the molar value.
reported.metric: pIC50

compound="Nc1nc(=O)c2nc(CNc3ccc(C(=O)NC(CCC(=O)O)C(=O)O)c(O)c3)cnc2[nH]1 (stereo not shown)" reported_metric=pIC50 assay_value=4.84

###

# Ki values compiled below
- assay.system: Mtb Rv2671 (Mycobacterium tuberculosis)
- test.method.notes: Mtb Rv2671 enzyme inhibition assay
- Format: biochemical
- experimental.conditions: read-out: Mtb Rv2671 Ki; 50 μM NADPH
reported.metric: Ki (nM)

smiles_input=CCc1nc(N)nc(N)c1C#C[C@H](C)c1cc(-c2ccncc2)ccc1OC reported_metric=Ki assay_value=52
smiles_input=CCc1nc(N)nc(N)c1C#C[C@@H](C)c1cc(-c2ccc(C(=O)O)cc2)ccc1OC reported_metric=Ki assay_value=120
